Experiment: logP measured by HPLC
Format: physicochemical
metric_name: chromatographic logP

1. O=C(O)CCCCOC(=O)C(=O)CCCCc1ccc(-c2ccccc2)cc1 [17f]    3.5

====

Molecular target: human GV sPLA2 (Homo sapiens, UniProt P39877)
Sequence (P39877 21-138): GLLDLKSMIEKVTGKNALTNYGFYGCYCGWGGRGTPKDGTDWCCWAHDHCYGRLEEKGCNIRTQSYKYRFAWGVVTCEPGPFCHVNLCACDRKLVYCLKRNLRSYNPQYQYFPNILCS
Assay: mixed micelle assay, GV sPLA2 inhibition
Assay type: biochemical
Settings: at 0.091 mole fraction of inhibitor; mixed micelles; read-out: GV sPLA2 % Inhibition
metric_name: inhibition at 0.091 mole fraction

1. CCCCCCCCCCCCCCC(=O)C(=O)O [12e, 2-Oxohexadecanoic acid]    < 25%
2. CCOC(=O)CCCOC(=O)C(=O)CCCCc1ccccc1    < 25%
3. CC(C)(C)OC(=O)CCCOC(=O)C(=O)CCCCc1ccccc1 [16c]    < 25%
4. COC(=O)C(=O)CCCCc1ccccc1 [10a, Methyl 2-oxo-6-phenylhexanoate]    < 25%
5. CCCCCCCCCCCCCCC(=O)C(=O)OC [10e, Methyl 2-oxohexadecanoate]    27.5%
6. COC(=O)C(=O)CCCCc1ccc2ccccc2c1 [10b]    < 25%

====

Biological target: human GVIA iPLA2 (Homo sapiens, UniProt O60733)
Sequence (O60733 whole entry): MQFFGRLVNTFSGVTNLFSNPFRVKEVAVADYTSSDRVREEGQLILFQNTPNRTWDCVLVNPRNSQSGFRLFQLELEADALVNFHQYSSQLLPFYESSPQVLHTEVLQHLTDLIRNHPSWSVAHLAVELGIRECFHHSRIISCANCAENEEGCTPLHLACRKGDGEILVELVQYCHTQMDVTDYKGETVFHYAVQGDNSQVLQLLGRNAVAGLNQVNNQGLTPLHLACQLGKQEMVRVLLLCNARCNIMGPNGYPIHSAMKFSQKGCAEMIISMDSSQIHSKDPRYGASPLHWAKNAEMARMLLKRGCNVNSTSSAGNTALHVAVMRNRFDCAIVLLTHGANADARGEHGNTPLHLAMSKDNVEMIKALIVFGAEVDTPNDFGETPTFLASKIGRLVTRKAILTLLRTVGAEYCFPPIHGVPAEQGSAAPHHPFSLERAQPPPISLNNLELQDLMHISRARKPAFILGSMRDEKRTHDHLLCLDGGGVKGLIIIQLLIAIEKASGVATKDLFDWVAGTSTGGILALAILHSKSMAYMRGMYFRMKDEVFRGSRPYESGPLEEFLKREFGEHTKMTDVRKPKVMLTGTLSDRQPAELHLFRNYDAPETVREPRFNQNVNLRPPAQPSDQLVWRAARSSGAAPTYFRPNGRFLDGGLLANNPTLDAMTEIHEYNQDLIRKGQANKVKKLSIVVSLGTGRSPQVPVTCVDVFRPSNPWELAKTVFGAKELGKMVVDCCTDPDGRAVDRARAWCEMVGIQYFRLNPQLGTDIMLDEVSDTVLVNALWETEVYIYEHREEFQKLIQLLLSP
Test: mixed micelle assay, GVIA iPLA2 inhibition
Type: biochemical
Conditions: at 0.091 mole fraction of inhibitor; mixed micelles; read-out: GVIA iPLA2 % Inhibition
# Lookup of reported inhibition at 0.091 mole fraction keyed by entry
metric_name: inhibition at 0.091 mole fraction (%)

1. COC(=O)C(=O)CCCCc1ccccc1 [10a, Methyl 2-oxo-6-phenylhexanoate]    72
2. O=C(O)CCCCOC(=O)C(=O)CCCc1ccc(-c2ccccc2)cc1 [17h]    94
3. CCCCCCCCCCCCCCC(=O)C(=O)OCCCCC(=O)O [17e, 5-((2-Oxohexadecanoyl)oxy)pentanoic acid]    25

====

Biological target: recombinant human GIVA cPLA2 (Homo sapiens)
Sequence (P47712 1-749): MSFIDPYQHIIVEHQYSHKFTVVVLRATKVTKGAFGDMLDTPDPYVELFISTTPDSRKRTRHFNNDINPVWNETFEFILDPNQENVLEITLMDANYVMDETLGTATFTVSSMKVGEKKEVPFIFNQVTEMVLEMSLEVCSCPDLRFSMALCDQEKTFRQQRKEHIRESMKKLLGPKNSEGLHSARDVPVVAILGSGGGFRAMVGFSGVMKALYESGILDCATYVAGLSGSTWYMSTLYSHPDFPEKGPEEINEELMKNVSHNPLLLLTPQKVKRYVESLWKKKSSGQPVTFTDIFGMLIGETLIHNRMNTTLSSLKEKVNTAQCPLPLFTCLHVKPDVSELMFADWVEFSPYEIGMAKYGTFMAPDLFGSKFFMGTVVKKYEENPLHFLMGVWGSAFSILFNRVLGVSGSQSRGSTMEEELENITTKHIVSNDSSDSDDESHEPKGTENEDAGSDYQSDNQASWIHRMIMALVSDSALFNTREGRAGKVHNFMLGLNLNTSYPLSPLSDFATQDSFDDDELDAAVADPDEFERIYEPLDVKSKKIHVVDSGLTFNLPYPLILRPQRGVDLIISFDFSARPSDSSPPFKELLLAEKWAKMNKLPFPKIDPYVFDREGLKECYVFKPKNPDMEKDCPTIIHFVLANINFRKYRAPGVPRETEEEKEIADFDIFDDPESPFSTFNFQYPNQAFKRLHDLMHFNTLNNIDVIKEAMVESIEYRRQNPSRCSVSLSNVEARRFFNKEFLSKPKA
Experiment: mixed micelle assay, GIVA cPLA2 inhibition
Assay type: biochemical
Details: at 0.091 mole fraction of inhibitor; mixed micelles; read-out: GIVA cPLA2 % Inhibition
# Lookup of reported inhibition at 0.091 mole fraction keyed by entry
metric_name: inhibition at 0.091 mole fraction

1) CCCCCCCCCCCCCCC(=O)C(=O)O [12e, 2-Oxohexadecanoic acid]    78.4%
2) CCCCCCCCCCCCCCC(=O)C(=O)OCCCCC(=O)O [17e, 5-((2-Oxohexadecanoyl)oxy)pentanoic acid]    > 95%
3) COC(=O)C(=O)CCCCc1ccc2ccccc2c1 [10b]    55%
4) O=C(O)CCCCOC(=O)C(=O)CCCc1ccc(-c2ccccc2)cc1 [17h]    > 95%
5) CC(C)(C)OC(=O)CCCOC(=O)C(=O)CCCCc1ccccc1 [16c]    < 25%
6) CCCCCCCCCCCCCCC(=O)C(=O)OC [10e, Methyl 2-oxohexadecanoate]    68.2%
7) COC(=O)C(=O)CCCCc1ccccc1 [10a, Methyl 2-oxo-6-phenylhexanoate]    < 25%
8) CCOC(=O)CCCOC(=O)C(=O)CCCCc1ccccc1    27.3%

====

# Lookup of reported inhibition at 0.091 mole fraction keyed by entry
Target: human GVIA iPLA2 (Homo sapiens, UniProt O60733)
Assay: mixed micelle assay, GVIA iPLA2 inhibition
Assay type: biochemical
Details: read-out: GVIA iPLA2 % Inhibition
metric_name: inhibition at 0.091 mole fraction

1. CCCCCCCCCCCCCCC(=O)C(=O)OCCCC(=O)O [17a, 4-((2-Oxohexadecanoyl)oxy)butanoic acid]    < 25%
2. CCCCCCCCCCCCCCC(=O)C(=O)OC [10e, Methyl 2-oxohexadecanoate]    69.4%
3. CCCCCCCCCCCCCCC(=O)C(=O)O [12e, 2-Oxohexadecanoic acid]    < 25%
4. CCOC(=O)CCCOC(=O)C(=O)CCCCc1ccccc1 [compound 19]    < 25%
5. CCCCCCCCCCCCCCC(O)C(=O)OCCCC(=O)O (stereo not drawn) [compound 20]    < 25%
6. CCCCCCOc1ccc(CCCCC(=O)C(=O)OCCCC(=O)O)cc1 [17b]    < 25%
7. O=C(O)CCCOC(=O)C(=O)CCCCc1ccc(-c2ccccc2)cc1 [17d]    < 25%
8. O=C(O)CCCOC(=O)C(=O)CCCc1ccc(-c2ccccc2)cc1 [17g]    84%
9. CC(C)(C)OC(=O)CCCOC(=O)C(=O)CCCCc1ccccc1 [16c]    < 25%

====

Molecular target: human GV sPLA2 (Homo sapiens)
Test: mixed micelle assay, GV sPLA2 inhibition
Assay type: biochemical
Settings: read-out: GV sPLA2 % Inhibition
metric_name: inhibition at 0.091 mole fraction

1) O=C(O)CCCCOC(=O)C(=O)CCCc1ccc(-c2ccccc2)cc1 [17h]    < 25%
2) O=C(O)CCCCOC(=O)C(=O)CCCCc1ccc(-c2ccccc2)cc1 [17f]    < 25%
3) O=C(O)CCCOC(=O)C(=O)CCCc1ccc(-c2ccccc2)cc1 [17g]    < 25%
4) O=C(O)CCCOC(=O)C(=O)CCCCc1ccc(-c2ccccc2)cc1 [17d]    < 25%
5) CCCCCCCCCCCCCCC(O)C(=O)OCCCC(=O)O (centres unmarked)    41%
6) CCCCCCCCCCCCCCC(=O)C(=O)OCCCC(=O)O [17a, 4-((2-Oxohexadecanoyl)oxy)butanoic acid]    < 25%
7) CCCCCCCCCCCCCCC(=O)C(=O)OCCCCC(=O)O [17e, 5-((2-Oxohexadecanoyl)oxy)pentanoic acid]    < 25%
8) CCCCCCOc1ccc(CCCCC(=O)C(=O)OCCCC(=O)O)cc1 [17b]    52.6%

====

# Lookup of reported GIVA cPLA2 X I(50) keyed by entry
Target: recombinant human GIVA cPLA2 (Homo sapiens)
Sequence (P47712 1-749): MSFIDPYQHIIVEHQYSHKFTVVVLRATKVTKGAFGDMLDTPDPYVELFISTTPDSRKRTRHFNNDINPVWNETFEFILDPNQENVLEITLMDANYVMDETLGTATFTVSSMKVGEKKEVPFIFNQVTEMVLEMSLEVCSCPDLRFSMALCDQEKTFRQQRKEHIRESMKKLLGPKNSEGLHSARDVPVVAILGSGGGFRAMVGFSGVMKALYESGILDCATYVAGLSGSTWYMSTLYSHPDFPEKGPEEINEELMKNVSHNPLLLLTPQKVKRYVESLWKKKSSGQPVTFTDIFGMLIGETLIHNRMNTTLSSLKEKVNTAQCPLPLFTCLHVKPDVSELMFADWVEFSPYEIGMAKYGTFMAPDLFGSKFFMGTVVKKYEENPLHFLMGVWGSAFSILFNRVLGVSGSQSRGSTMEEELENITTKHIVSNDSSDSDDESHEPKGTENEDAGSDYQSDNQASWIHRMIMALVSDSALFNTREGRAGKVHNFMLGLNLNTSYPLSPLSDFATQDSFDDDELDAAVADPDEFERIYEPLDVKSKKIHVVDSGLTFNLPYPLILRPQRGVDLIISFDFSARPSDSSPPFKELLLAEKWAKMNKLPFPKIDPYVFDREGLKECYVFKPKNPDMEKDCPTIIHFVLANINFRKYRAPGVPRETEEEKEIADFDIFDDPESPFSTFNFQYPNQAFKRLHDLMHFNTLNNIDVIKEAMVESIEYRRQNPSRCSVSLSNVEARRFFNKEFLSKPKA
Test: mixed micelle assay, GIVA cPLA2 inhibition
Type: biochemical
Details: mole fraction of inhibitor in total substrate interface giving 50% inhibition
metric_name: GIVA cPLA2 X I(50) (mole fraction)

1. CCCCCCOc1ccc(CCCCC(=O)C(=O)OCCCC(=O)O)cc1 [17b]    0.00289
2. CCCCCCCCCCCCCCC(=O)C(=O)OCCCCC(=O)O [17e, 5-((2-Oxohexadecanoyl)oxy)pentanoic acid]    0.00007
3. O=C(O)CCCOC(=O)C(=O)CCCc1ccc(-c2ccccc2)cc1 [17g]    0.0065
4. CCCCCCCCCCCCCCC(=O)C(=O)OCCCC(=O)O [17a, 4-((2-Oxohexadecanoyl)oxy)butanoic acid]    0.00008
5. O=C(O)CCCCOC(=O)C(=O)CCCCc1ccc(-c2ccccc2)cc1 [17f]    0.000078
6. O=C(O)CCCCOC(=O)C(=O)CCCc1ccc(-c2ccccc2)cc1 [17h]    0.0010
